Attribution: paper PMC5011342

# System: expanded OPCs
# EXPERIMENT SUMMARY: cells
# CONDITION CONTEXT: Rattus norvegicus, 72 h, read-out: 1 µM (% DMSO), alamarBlue viability of expanded OPCs, compound at 1 µM, sheet All Tox data
# Description: Having established a consistent assay for measuring OL differentiation in vitro, the next step was to utilize this assay to assess the ability of a wide array of compounds to promote OL differentiation. Prior to library screening, we first established the maximum non-toxic dose of each compound in the library. […] Three days later, we assessed viability of the treated cells by measuring AlamarBlue fluorescence, a measure of cell viability (see “Methods” section). […]
viability at 1 µM overview

# ENTRY SMILES, UNIT TEXT, viability at 1 µM
data = [
    ("CC(=O)[C@H]1CC[C@H]2[C@@H]3CCC4=CC(=O)CC[C@]4(C)[C@H]3CC[C@]12C", "%", 102),
    ("Cc1nnc2n1-c1ccc(Cl)cc1C(c1ccccc1)=NC2", "%", 115),
    ("CC(=O)Nc1ccc(CC(=O)O)cc1", "%", 104),
    ("CC[C@@]1(O)C(=O)OCc2c1cc1n(c2=O)Cc2cc3c(CN(C)C)c(O)ccc3nc2-1", "%", 49.7),
    ("Clc1ccccc1C(c1ccccc1)(c1ccccc1)n1ccnc1", "%", 125),
    ("Cc1ccsc1C(=CCCN1CCC[C@@H](C(=O)O)C1)c1sccc1C", "%", 89.2),
    ("Cn1c(NCCN(CCO)CCCc2ccc([N+](=O)[O-])cc2)cc(=O)n(C)c1=O", "%", 97.6),
    ("N#Cc1ccc(C(c2ccc(C#N)cc2)n2cncn2)cc1", "%", 99.2),
    ("C[C@]12CC[C@H](O)CC1=CC[C@@H]1[C@@H]2CC[C@@]2(C)[C@H]1CC[C@]2(C)O", "%", 87.5),
]

* * *

# Test system: expanded OPCs
# EXPERIMENT SUMMARY: cells
# CONDITION CONTEXT: Rattus norvegicus, 72 h, read-out: 1 µM (% DMSO), alamarBlue viability of expanded OPCs, compound at 1 µM, sheet All Tox data
READOUT TYPE: viability at 1 µM (%)

# COMPOUND, EXPERIMENTAL SYSTEM, UNIT TEXT, RESULT
records = [
    ("CCCCCCCCCCC[C@@H](C[C@@H]1OC(=O)[C@H]1CCCCCC)OC(=O)[C@H](CC(C)C)NC=O", "expanded OPCs", "%", 80.1),
    ("CN1CCN(C2=Nc3ccccc3Oc3ccc(Cl)cc32)CC1", "expanded OPCs", "%", 71.4),
    ("C#CCN(C)[C@H](C)Cc1ccccc1", "expanded OPCs", "%", 88.8),
    ("C[C@@H]1C[C@H]2[C@@H]3C[C@H](F)C4=CC(=O)C=C[C@]4(C)[C@@]3(F)[C@@H](O)C[C@]2(C)[C@@]1(O)C(=O)SCF", "expanded OPCs", "%", 106),
    ("CCOc1cc(N)c(Cl)cc1C(=O)NCC1CN(Cc2ccc(F)cc2)CCO1 (centres unmarked) [Mosapride]", "expanded OPCs", "%", 104),
]

* * *

# Test system: expanded OPCs
# EXPERIMENT SUMMARY: cells
# CONDITION CONTEXT: Rattus norvegicus, 72 h, read-out: 1 µM (% DMSO), alamarBlue viability of expanded OPCs, compound at 1 µM, sheet All Tox data
Counter-ions that a name gives are not always drawn.

# COMPOUND, UNIT TEXT, viability at 1 µM
measured = [
    ("C=CC[C@@H]1/C=C(\\C)C[C@H](C)C[C@H](OC)[C@H]2O[C@@](O)(C(=O)C(=O)N3CCCC[C@H]3C(=O)O[C@H](/C(C)=C/[C@@H]3CC[C@@H](O)[C@H](OC)C3)[C@H](C)[C@@H](O)CC1=O)[C@H](C)C[C@@H]2OC", "%", 102),
    ("CC(C(=O)O)c1ccc(-c2ccccc2)c(F)c1 (stereo not shown)", "%", 103),
    ("CN1CCCCC1CCN1c2ccccc2Sc2ccc([S+](C)[O-])cc21 (stereo not shown)", "%", 76.6),
    ("c1cncc([C@@H]2CCCN2)c1", "%", 101),
    ("CN1[C@@H]2C[C@@H](OC(=O)[C@H](CO)c3ccccc3)C[C@H]1[C@@H]1O[C@@H]12 [Scopolamine hydrobromide]", "%", 90.5),
    ("Nc1ccn([C@@H]2CS[C@H](CO)O2)c(=O)n1", "%", 96),
    ("COc1cc(-c2ccc(=O)[nH]n2)ccc1OC(F)F", "%", 93.5),
    ("CO[C@H]1/C=C/O[C@@]2(C)Oc3c(C)c(O)c4c(c3C2=O)C2=NC3(CCN(CC(C)C)CC3)NC2=C(NC(=O)/C(C)=C\\C=C\\[C@H](C)[C@H](O)[C@@H](C)[C@@H](O)[C@@H](C)[C@H](OC(C)=O)[C@@H]1C)C4=O", "%", 79.7),
    ("CCC(=O)O[C@@H]1CC(=O)O[C@H](C)C/C=C/C=C/[C@H](O)[C@H](C)C[C@H](CC=O)[C@H](O[C@@H]2O[C@H](C)[C@@H](O[C@H]3C[C@@](C)(O)[C@@H](OC(=O)CC)[C@H](C)O3)[C@H](N(C)C)[C@H]2O)[C@H]1OC", "%", 95.7),
    ("CC(C)(C)NC(=O)[C@H]1CC[C@H]2[C@@H]3CC[C@H]4NC(=O)C=C[C@]4(C)[C@H]3CC[C@]12C [Finasteride]", "%", 85.8),
    ("COc1ccc(C2CNC(=O)C2)cc1OC1CCCC1 (stereo not shown)", "%", 92.8),
    ("CC=CC(=O)N(CC)c1ccccc1C (mixture of isomers)", "%", 106),
    ("CC(=O)O[C@@]12CO[C@@H]1C[C@H](O)[C@@]1(C)C(=O)[C@H](O)C3=C(C)[C@@H](OC(=O)[C@H](O)[C@@H](NC(=O)OC(C)(C)C)c4ccccc4)C[C@@](O)([C@@H](OC(=O)c4ccccc4)[C@H]21)C3(C)C", "%", 38.8),
]

* * *

# System: expanded OPCs
# EXPERIMENT SUMMARY: cells
# CONDITION CONTEXT: alamarBlue viability of expanded OPCs, compound at 0.1 µM, relative to DMSO control
READOUT TYPE: 0.1 µM (% DMSO)

# COMPOUND, EXPERIMENTAL SYSTEM, READOUT TYPE, RESULT
rows = [
    ("CC(C)(S)[C@@H](N)C(=O)O", "expanded OPCs", "0.1 µM (% DMSO)", 86.6),
    ("CCOC(=O)CCC(=O)O[C@H]1[C@H](O[C@@H]2[C@@H](C)[C@H](O[C@H]3C[C@@](C)(OC)[C@@H](O)[C@H](C)O3)[C@@H](C)C(=O)O[C@H](CC)[C@@](C)(O)[C@H](O)[C@@H](C)C(=O)[C@H](C)C[C@@]2(C)O)O[C@H](C)C[C@@H]1N(C)C [Erythromycin Ethylsuccinate]", "expanded OPCs", "0.1 µM (% DMSO)", 95.4),
    ("O=C1CN(/N=C/c2ccc([N+](=O)[O-])o2)C(=O)N1", "expanded OPCs", "0.1 µM (% DMSO)", 101.2),
    ("Cc1onc(-c2ccccc2)c1C(=O)N[C@@H]1C(=O)N2[C@@H]1SC(C)(C)[C@@H]2C(=O)O", "expanded OPCs", "0.1 µM (% DMSO)", 96.9),
    ("O=C(C1CCCCC1)N1CC(=O)N2CCc3ccccc3C2C1 (stereo not shown)", "expanded OPCs", "0.1 µM (% DMSO)", 85.2),
    ("CC(C(=O)O)c1cccc(C(=O)c2ccccc2)c1 (stereo not shown)", "expanded OPCs", "0.1 µM (% DMSO)", 90.4),
    ("CC/C(=C(\\c1ccccc1)c1ccc(OCCN(C)C)cc1)c1ccccc1 [Tamoxifen, reference compound]", "expanded OPCs", "0.1 µM (% DMSO)", 162.2),
]

* * *

# Tested on: expanded OPCs
# EXPERIMENT SUMMARY: cells
# CONDITION CONTEXT: alamarBlue viability of expanded OPCs, compound at 10 µM, relative to DMSO control

# COMPOUND, 10 µM (% DMSO)
records = [
    ("CC(C)NCC(O)COc1cccc2ccccc12 (stereo not drawn) [Propranolol]", "32.7 % DMSO"),
    ("COc1ccc(OC)c(C(O)CNC(=O)CN)c1 (stereo not drawn) [Midodrine]", "89.1 % DMSO"),
    ("CN1CCN(C(=O)O[C@H]2c3nccnc3C(=O)N2c2ccc(Cl)cn2)CC1 [Eszopiclone]", "106.9 % DMSO"),
    ("C[C@@H]1C[C@H]2[C@@H]3CCC4=CC(=O)C=C[C@]4(C)[C@@]3(F)[C@@H](O)C[C@]2(C)[C@@]1(O)C(=O)CO [Dexamethasone]", "109.8 % DMSO"),
    ("CC(C)(C)NCC(O)c1cc(O)cc(O)c1 (stereo not drawn) [Terbutaline]", "89.9 % DMSO"),
    ("CN1CCN(C2=Nc3cc(Cl)ccc3Nc3ccccc32)CC1 [Clozapine]", "24.6 % DMSO"),
    ("C[C@]12C=CC(=O)C=C1CC[C@@H]1[C@@H]2[C@@H](O)C[C@@]2(C)[C@H]1CC[C@]2(O)C(=O)CO [Prednisolone]", "109.9 % DMSO"),
    ("NS(=O)(=O)c1cc2c(cc1Cl)NCNS2(=O)=O [Hydrochlorothiazide]", "90.6 % DMSO"),
    ("CN(C)CCC=C1c2ccccc2COc2ccccc21 [Doxepin]", "52.1 % DMSO"),
]
